Data credit: ChEMBL document CHEMBL1157272

# PROCEDURE_DETAILS: Cytotoxicity against human HepG2(2.2.15) cells
# Format: functional, cell-based
Consider the following compounds; for each one, report its pIC50.
Reminder that pIC50 is minus the log10 of a molar concentration.

In: Answer with reported pIC50 of C=C[C@@]1(C)CCC=C(C[C@H](C)OC(=O)c2cc3c(c4c2c([N+](=O)[O-])cc2ccccc24)OCO3)[C@H]1C(=C)C=O [ARISTOPHYLLIDE C]
Out: 5.21

In: Answer with reported pIC50 of C=C[C@@]1(C)CCC=C(C[C@H](C)OC(=O)c2cc3c(c4c2c([N+](=O)[O-])cc2c(OC)cccc24)OCO3)[C@H]1C(=C)C=O [ARISTOPHYLLIDE A]
Out: 5.29

In: Answer with reported pIC50 of C=C[C@@]1(C)CCC=C(C[C@@H](C)OC(=O)c2cc3c(c4c2c([N+](=O)[O-])cc2ccccc24)OCO3)[C@@H]1C(=C)C=O [ARISTOPHYLLIDE D]
Out: 4.88

In: Answer with reported pIC50 of C=C[C@@]1(C)CCC=C(C[C@@H](C)OC(=O)c2cc3c(c4c2c([N+](=O)[O-])cc2c(OC)cccc24)OCO3)[C@@H]1C(=C)C=O [ARISTOPHYLLIDE B]
Out: 5.03
